Taken from ChEMBL document CHEMBL1201862.

GI50 reference
# Test system: K562
# measurementProtocol: NCI tumour cell line growth inhibition, 48 h
Activity calls are given as the source filed them. No stated cut-off is given here; in the data, active = GI50 up to about 1.1 µM and inactive = higher. Where a SMILES comes first, the peptide text is derived from it. [ ]: non-standard residue; d: D form. The star is where a group is joined. Phe(4-NO2) = N[CH](Cc1ccc([N+](=O)[O-])cc1)C(=O)O; Boc = CC(C)(C)OC(=O)*

{"columns": ["compound", "GI50"],
 "data": [
  ["CCOC(=O)CCC(NC(=O)C(Cc1ccc([N+](=O)[O-])cc1)NC(=O)OC(C)(C)C)C(=O)NC(CCC(=O)OCC)C(=O)OCC (centres undefined) (Boc-[Phe(4-NO2)]-Glu(OEt)-Glu(OEt)-OEt; configuration not given here)", "> 10 µM (inactive)"],
  ["COc1cc([C@@H]2c3cc4c(cc3[C@@H](NC(=O)c3ccc(OC(C)=O)cc3)C3COC(=O)[C@@H]32)OCO4)cc(OC)c1O (some centres undefined)", "2.17 µM (inactive)"],
  ["Cc1nn(C(=O)c2ccncc2)c2c1C(c1cccc([N+](=O)[O-])c1)SC(=N)N2 (centres undefined)", "> 10 µM (inactive)"],
  ["O=c1oc2ccc([N+](=O)[O-])cc2c(Nc2ccc3c(c2)S(=O)(=O)c2ccccc2O3)c1[N+](=O)[O-]", "33 µM (inactive)"],
  ["O=C(O)C(NCc1ccccc1)C(NCc1ccccc1)C(=O)O (centres undefined)", "> 100 µM (inactive)"],
  ["CC1(C)C2CCC1C(=O)[C@@]1(C=CC(=O)CC1)C2 (some centres undefined)", "> 100 µM (inactive)"],
  ["O=c1c2ccccc2c2ccccc2c(=O)n1Cc1ccc2c(c1)OCO2", "7.45 µM (inactive)"],
  ["COC(=O)N[C@H](C(=O)NC(OCc1ccccc1)C1COC(C)(C)O1)C(C)O[Si](C)(C)C(C)(C)C (some centres undefined)", "> 100 µM (inactive)"],
  ["S=C(NN=C1NCCCN1)Nc1ccccc1", "99.5 µM (inactive)"],
  ["Nc1nc(N)c(N=O)c(Nc2ccc(O)cc2)n1", "> 45.6 µM (inactive)"],
  ["CC(C)=NOC(=O)OC[C@H]1O[C@@H](n2cnc3c(N)ncnc32)C(O)C1O (some centres undefined)", "30.1 µM (inactive)"],
  ["Cc1ccc(S(=O)(=O)N2CCCC2C(=O)O[C@H]2CC[C@H]3CC=C[C@H]32)cc1 (some centres undefined)", "14.9 µM (inactive)"],
  ["CC1=NN(c2ccc(S(=O)(=O)O)cc2)C2(C1)C(Cl)C(=O)N2c1nc2ccccc2s1 (centres undefined)", "> 100 µM (inactive)"],
  ["N#Cc1ccc(Oc2cccc(Oc3ccccc3)c2)cc1C#N", "41.4 µM (inactive)"],
  ["CC(=O)/C(=N\\O)C(=O)Nc1ccc(Cl)cc1Cl", "> 100 µM (inactive)"],
  ["COC(=O)C1=C(O)CCCC(CCC(C)=O)=C1", "31.3 µM (inactive)"],
  ["N#C[C@@H](c1ccccn1)c1ncccc1[N+](=O)[O-]", "> 100 µM (inactive)"],
  ["COc1cc2c(C)cc(O)cc2c2cc(O)c(C)cc12", "2.48 µM (inactive)"],
  ["C=C1CC(CNc2cc(Cl)nc(N)n2)C1", "71.6 µM (inactive)"],
  ["O=C(O)C1C2CC3CC2CC31 (centres undefined)", "> 100 µM (inactive)"],
  ["CCOC(=O)C1=NOC2(C=C(Br)C(=O)C(Br)=C2)C1", "1.37 µM (inactive)"],
  ["O=c1c2ccccc2[nH]c2c(Cl)cc(Cl)c(NC3CCCCC3)c12", "22.4 µM (inactive)"],
  ["COC1(OC)CC2C(=O)N(Cc3ccccc3)C1C(S(=O)(=O)c1ccccc1)C2S(=O)(=O)c1ccccc1 (centres undefined)", "7.48 µM (inactive)"],
  ["Cc1ccc(O)c(C2=CC3=NNC(=O)C3C(c3cccc(Cl)c3)C2)c1 (centres undefined)", "37.1 µM (inactive)"]
]}
